- measured_on: Inhibitor of nuclear factor kappa-B kinase subunit beta (Homo sapiens)
- experimental_parameters: at 0.1 µM;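 note: values are mean percent inhibition of IKKB, part of the GSK PKIS screening data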
Below: a set of entries, each annotated with reported inhibition.
Answer format: numeric, % implied, no suffix.

CCC(=O)Nc1ccc(C)c(-c2ccc(C(=O)NCC3CC3)cc2)c1    5.07
Fc1ccc(-c2c(-c3ccncc3)nc3n2CCS3)cc1    2.88
Fc1ccc(-c2ncn(C3CCNCC3)c2-c2ccnc(Oc3ccc(Oc4ccccc4)cc3)n2)cc1    5.84
COc1ccc2cc(-c3c(-c4ccncc4)nc(-c4ccc([S+](C)[O-])cc4C)n3C)ccc2c1 (centres undefined)    -0.05
CCc1ccc(Oc2nccc(-c3c(-c4ccc(F)cc4)ncn3C3CCNCC3)n2)cc1    3.54
CN(C)CCCNc1nccc(-c2c(-c3ccc(F)cc3)nn3cc(C(F)(F)F)ccc23)n1    1.56
CN1CCN(CCCNc2nc3ccc(Oc4ccc(NC(=O)Nc5cc(C(F)(F)F)ccc5F)cc4)cc3[nH]2)CC1    0.21
COc1ccc2ncn(-c3cc(O[C@H](C)c4ccccc4Cl)c(C(N)=O)s3)c2c1    6.12

Entry COc1cc(Nc2ncc3c(C)nc(-c4cccc(C(F)(F)F)c4)n3n2)cc(OC)c1OC ; inhibition = 3.58
